Target: T1, 4H883-bA
T1 chain: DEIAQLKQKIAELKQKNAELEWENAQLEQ
Assay: two-hybrid library CCNG1;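 further: natural log of median RNA to DNA barcode read ratio; higher means stronger binding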
Output Satisfied for records whose interaction score is lower than -1, Not satisfied for records at or above -1.

Record excerpt, results attached:
> print(dat)
                                     binder  classification
1  DEIAQLKQENAELKQKNAELEWEIAQLKQ [4H754-bA]   Not satisfied
2  DKNAQLKQKIAELEQEIAELKWKNAQLEQ [4H3855-bA]       Satisfied
3  DKNAQLKQENAELKQEIAELEWKIAQLKQ [4H3782-bA]   Not satisfied
4  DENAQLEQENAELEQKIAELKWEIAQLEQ [4H1193-bA]   Not satisfied
5  DKNAQLKQKIAELEQEIAELEWENAQLEQ [4H3843-bA]       Satisfied

Would you kindly verify if interaction score of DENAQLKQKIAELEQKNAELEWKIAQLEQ [4H1845-bA] is strictly less than -1? Not satisfied
